test system: Sclerotinia sclerotiorum; assay: Synergistic Growth Inhibition Assay (MIC and FIC index, 96-well, resazurin); assay type: cell-based; details: Sclerotinia sclerotiorum, […], Table 37; Compound B alone; 7 days incubation; read-out: MIC (B)
Measured Parameter: MIC

>>> recorded_value("CCCCCC=CCC(=O)O")
"78.1 µg/mL"
>>> recorded_value("CCCCCC/C=C/C(=O)O [Trans-2-nonenoic acid]")
"78.1 µg/mL"
>>> recorded_value("C=CCCCCCCCC(=O)O")
"156 µg/mL"
>>> recorded_value("CCCCCCC/C=C/C(=O)O [Trans-2-decenoic acid, trans-2-decenoic acid]")
"39.1 µg/mL"

###

test system: Sclerotinia sclerotiorum; assay: Synergistic Growth Inhibition Assay (MIC and FIC index, 96-well, resazurin); assay type: cell-based; conditions: Sclerotinia sclerotiorum, […], Table 38; Compound B alone; 7 days incubation; read-out: MIC (B)
Listing of entries alongside the reported MIC.
Measured Parameter: MIC

>>> recorded_value("CCCCCC/C=C/C(=O)O [Trans-2-nonenoic acid]")
"39.1 µg/mL"
>>> recorded_value("CCCCCC=CCC(=O)O")
"78.1 µg/mL"
>>> recorded_value("CCCCCCC/C=C/C(=O)O [Trans-2-decenoic acid, trans-2-decenoic acid]")
"19.5 µg/mL"
>>> recorded_value("CCCCCCCC/C=C/C(=O)O [Trans-2-undecenoic acid]")
"39.1 µg/mL"
>>> recorded_value("CCCCCCC=CCC(=O)O")
"39.1 µg/mL"
>>> recorded_value("C=CCCCCCCCC(=O)O")
"78.1 µg/mL"

###

Tested on: Alternaria solani
Assay: Synergistic Growth Inhibition Assay (MIC and FIC index, 96-well, resazurin)
Type: cell-based
Settings: Alternaria solani, […], Compound B alone; 7 days incubation; read-out: MIC (B)
Method: In some embodiments, the synergistic action between the pesticidal active ingredient, and the at least one C6-C10 (or alternatively C11 or C12) saturated or unsaturated aliphatic acid components of the pesticidal compositions according to embodiments of the present disclosure was tested using a Synergistic Growth Inhibition Assay, which is derived from and related to a checkerboard assay as is known in the art for testing of combinations of antimicrobial agents. […]
Measured Parameter: MIC (µg/mL)

>>> recorded_value("CCCC(C)CC(=O)O (centres unmarked)")
250
>>> recorded_value("CCCCC(O)C(=O)O (centres unmarked) [2-Hydroxyhexanoic acid]")
2500
>>> recorded_value("CCCCCCC(C)CC(=O)O (centres unmarked)")
62.5
>>> recorded_value("CCCC/C=C/CC(=O)O [Trans-3-octenoic acid]")
156
>>> recorded_value("CCCCCCC/C=C/C(=O)O [Trans-2-decenoic acid, trans-2-decenoic acid]")
39.1
>>> recorded_value("CCCCCC(O)CC(=O)O (centres unmarked) [3-Hydroxyoctanoic acid]")
1250
>>> recorded_value("CCCCCC/C=C/C(=O)O [Trans-2-nonenoic acid]")
156
>>> recorded_value("CCCCC(CC)C(=O)O (centres unmarked)")
156
>>> recorded_value("CCCCCCC(O)C(=O)O (centres unmarked) [2-Hydroxyoctanoic acid]")
625
>>> recorded_value("CCC(O)C(=O)O (centres unmarked) [2-Hydroxybutyric acid]")
2500
>>> recorded_value("C=CCCCCCC(=O)O")
156

###

Listing of entries alongside the reported MIC.
tested on: Fusarium oxysporum; assay: Synergistic Growth Inhibition Assay (MIC and FIC index, 96-well, resazurin); assay type: cell-based; conditions: Fusarium oxysporum, 24 h, Table 4; Compound B alone; 24 hour incubation; read-out: MIC (B)
Measured Parameter: MIC (µg/mL)

>>> recorded_value("C=CCCCCCCCC(=O)O [9-Decenoic acid, 9-decenoic acid]")
71.7
>>> recorded_value("CCCCC=CCC(=O)O [3-Octenoic acid, 3-octenoic acid]")
147
>>> recorded_value("CCCCCCC=CCC(=O)O [3-Decenoic acid, 3-decenoic acid]")
73.4
>>> recorded_value("CCCCCCC/C=C/C(=O)O [Trans-2-decenoic acid, trans-2-decenoic acid]")
36.2
>>> recorded_value("CCCCC/C=C/C(=O)O [Trans-2-octenoic acid, trans-2-octenoic acid]")
149

Reference source: patent US11839212B2
